System: PC-3 prostate
Assay: NCI-60 one-dose screen, 48 h (100 = growth as untreated, 0 = no growth, -100 = all killed)
Settings: 10 µM unless noted
The panel holds about 83,000 compounds, 20% with a hit somewhere; the sample as a whole holds those more often.
Quick rule for you: growth under 60% gets True, anything else gets False.

Some entries whose results are on file:
- CC/C=C\C/C=C/C=C1/C(=O)C=C[C@@H]1C/C=C\CCCC(=O)OC: True
- CC1(C)CC2=C3C=C[C@@H]4[C@@]5(C)CC[C@H](O)C(C)(C)[C@@H]5CC[C@@]4(C)[C@]3(C)CC[C@@]2(C(=O)O)CC1=O: True
- COc1cccc(C(=O)OCC(O)C(=O)NC23CC4CC(CC(C4)C2)C3)c1 (configuration not stated): False
- CCN1C(=O)N(CC)C2C1NN=c1s/c(=C\c3cc4ccccc4[nH]3)c(=O)n12 (configuration not stated): True
- CC(C)CCSc1nc(Nc2ccccc2)c(C#N)c(-c2ccccc2)n1: False

Say whether its growth is strictly beneath 60%. Entry: "CCOC(=O)C1=C(C)N=C2SC=C(c3ccccc3)N2[C@H]1c1cn[nH]c1-c1ccc(Cl)cc1"
True

Say whether its growth is strictly beneath 60%. Entry: "Cc1c2ccccc2nc2c1ccc1cccnc12"
False
